test system: ryegrass, Italian (italian ryegrass, Lolium multiflorum); assay: Test A postemergence application, visual injury rating 0-100; assay type: in vivo; details: 62 g ai/ha, postemergence, 10 days, 0 = no effect, 100 = complete control
VALUE KIND: Ryegrass, Italian plant response rating (0-100)

So what does the record say about Ryegrass, Italian plant response rating (0-100) for CCOC(=O)C1=CCC(NC(=O)C2(C)CN(c3cc(F)cc(F)c3)C(=O)O2)C1 (centres unmarked) [Compound 112] ? 90

Look up Ryegrass, Italian plant response rating (0-100) for this compound: CC(C)COC(=O)C1=CCC(NC(=O)C2(C)CN(c3cc(F)cc(Cl)c3)C(=O)O2)C1 (centres unmarked) 0

State the recorded Ryegrass, Italian plant response rating (0-100) for this entry: CC1(C(=O)NC2C=CC(C(=O)O)C2)CN(c2cc(F)cc(F)c2)C(=O)O1 (centres unmarked) 90

Would you kindly share the measured Ryegrass, Italian plant response rating (0-100) for CC1(C(=O)NC2C=CC(C(=O)O)C2)CN(c2cc(Cl)c(F)c(Cl)c2)C(=O)O1 (centres unmarked) ? 90

What value of Ryegrass, Italian plant response rating (0-100) has been recorded for this entry: COC(=O)COC(=O)C1=CCC(NC(=O)C2(C)CN(c3cc(Cl)cc(Cl)c3)C(=O)O2)C1 (centres unmarked) 70

Report Ryegrass, Italian plant response rating (0-100) for CCOC(=O)C1=CCC(NC(=O)C2(C)CN(c3cc(F)cc(F)c3)C(=O)O2)C1 (centres unmarked) [Compound 111] please. 0

May I ask what Ryegrass, Italian plant response rating (0-100) has been recorded for CCOC(=O)C1=CCC(NC(=O)C2(C)CN(c3cc(Cl)cc(Cl)c3)C(=O)O2)C1 (centres unmarked) ? 0

Can you share its Ryegrass, Italian plant response rating (0-100)? I mean this compound: C=CC1(C(=O)NC2CC(C(=O)OC)C2)CN(c2cc(F)cc(F)c2)C(=O)O1 (centres unmarked) 100

---

Each item that follows carries a reported Barnyardgrass plant response rating (0 to 100 scale).
test system: barnyardgrass (Echinochloa crus-galli); assay: Test A postemergence application, visual injury rating 0-100; assay type: in vivo; details: Postemergence, 125 g ai/ha, 10 days; 0 is no effect, 100 is complete control
Answer as a number with no unit attached.

Consider the worked cases shown below.
> print(dat)
                                   compound  readout.number
1  CNC(=O)C1CC(NC(=O)C2(C)CN(c3cc(F)cc(F)c3)C(=O)O2)CO1 (centres unmarked)               0
2  CCOC(=O)C1CCC(NC(=O)C2(C)CN(c3cc(F)cc(Cl)c3)C(=O)O2)C1 (centres unmarked)             100
3  CSCCOC(=O)C1=CCC(NC(=O)C2(C)CN(c3cc(F)cc(F)c3)C(=O)O2)C1 (centres unmarked)              90
4  COC(=O)C1C=CC(NC(=O)C2(C)CN(c3cc(F)cc(Cl)c3)C(=O)O2)C1 (centres unmarked)             100
5  CCOC(=O)C1=CCC(NC(=O)C2(C)CN(c3cc(Cl)cc(Cl)c3)C(=O)O2)C1 (centres unmarked)              90
6  CC1(C(=O)NC2C=CC(C(=O)OCC(F)(F)F)C2)CN(c2cc(F)cc(F)c2)C(=O)O1 (centres unmarked)             100
7  CC1(C(=O)NC2C=CC(C(=O)OC3CCCC3)C2)CN(c2cc(Cl)cc(Cl)c2)C(=O)O1 (centres unmarked)              90

We next turn to a different compound, shown below.
// query Barnyardgrass plant response rating (0 to 100 scale) value for entry CCOC(=O)C1CCC(NC(=O)C2(C)CN(c3cc(F)cc(F)c3)C(=O)O2)C1 (centres unmarked) 100

---

test system: galium (catchweed bedstraw, Galium aparine); test: Test A postemergence application, visual injury rating 0-100; type: in vivo; conditions: 62 g ai/ha, postemergence, 10 days, 0 = no effect, 100 = complete control
VALUE KIND: Galium plant response rating (0-100)
// no unit string in output, number only

Example compounds with recorded Galium plant response rating (0-100):
> print(dat)
                                   compound  readout.number
1  CCOC(=O)C1=CCC(NC(=O)C2(C)CN(c3cc(F)cc(Cl)c3)C(=O)O2)C1 (stereo not shown) [Compound 133]              70
2  CC(C)COC(=O)C1=CCC(NC(=O)C2(C)CN(c3cc(F)cc(Cl)c3)C(=O)O2)C1 (stereo not shown) [Compound 143]               0
3  CCOC(=O)C1C=CC(NC(=O)C2(C)CN(c3cccc(OC(F)(F)F)c3)C(=O)O2)C1 (stereo not shown) [Compound 102]              70

We next turn to a different compound, shown below.
Look up Galium plant response rating (0-100) for this compound: C=CC1(C(=O)NC2C=CC(C(=O)O)C2)CN(c2cc(F)cc(F)c2)C(=O)O1 (mixture of isomers) [Compound 166] 90

---

test system: ragweed (common ragweed, Ambrosia artemisiifolia); test: Test A postemergence application, visual injury rating 0-100; type: in vivo; conditions: 62 g ai/ha, postemergence, 10 days, 0 = no effect, 100 = complete control
VALUE KIND: Ragweed plant response rating (0-100)
Could you respond with only the numeric value?

> print(dat)
                                   compound                            assayed.system  readout.number
1  C=CC1(C(=O)NC2CC(C(=O)OC)C2)CN(c2cc(F)cc(F)c2)C(=O)O1 (stereo not drawn)  ragweed (common ragweed, Ambrosia artemisiifolia)               0

Now examine the next entry.
Bench note: what Ragweed plant response rating (0-100) did CC(C)OC(=O)C1=CCC(NC(=O)C2(C)CN(c3cc(Cl)cc(Cl)c3)C(=O)O2)C1 (stereo not drawn) [Compound 105] show? 0

---

test system: blackgrass (Alopecurus myosuroides); experiment: Test A preemergence soil spray, visual injury rating 0-100; assay type: in vivo; details: 125 g ai/ha, 10 days, 0 = no effect, 100 = complete control
VALUE KIND: Blackgrass plant response rating (0 to 100 scale)
Please state the value as a number alone, without comment.

Examples from the recorded data:
> print(dat)
                                   compound  readout.number
1  CC1(C(=O)NC2C=CC(C(=O)NS(=O)(=O)C(C)(C)C)C2)CN(c2cc(F)cc(F)c2)C(=O)O1 (centres unmarked)              30
2  CC1(C(=O)NC2CC=C(C(=O)O)C2)CN(c2cc(F)cc(F)c2)C(=O)O1 (centres unmarked)              50
3  CCOC(=O)C1C=CC(NC(=O)C2(C)CN(c3cc(Cl)cc(Cl)c3)C(=O)O2)C1 (centres unmarked)              90
4  CC1(C(=O)NC2CC=C(C(=O)OCC(F)(F)F)C2)CN(c2cc(F)cc(F)c2)C(=O)O1 (centres unmarked)              70

Which Blackgrass plant response rating (0 to 100 scale) reading was recorded for the compound COC(=O)C1CCC(NC(=O)C2(C)CN(c3cc(F)cc(F)c3)C(=O)O2)C1 (centres unmarked) ? 90

# input compound: CNC(=O)C1C=CC(NC(=O)C2(C)CN(c3cc(Cl)cc(Cl)c3)C(=O)O2)C1 (centres unmarked) ; wanted: its Blackgrass plant response rating (0 to 100 scale) 10

Given the compound CC1(C(=O)NC2C=CC(C(=O)OCCS(C)(=O)=O)C2)CN(c2cc(Cl)cc(Cl)c2)C(=O)O1 (centres unmarked) , what is its reported Blackgrass plant response rating (0 to 100 scale)? 80

# get_value(readout='Blackgrass plant response rating (0 to 100 scale)', item= CC(C)COC(=O)C1C=CC(NC(=O)C2(C)CN(c3cc(F)cc(F)c3)C(=O)O2)C1 (centres unmarked) ) 90

---

system: corn (Zea mays); test: Test A postemergence application, visual injury rating 0-100; assay type: in vivo; details: 31 g ai/ha, postemergence, 10 days, 0 = no effect, 100 = complete control
VALUE KIND: Corn plant response rating (0-100)
Respond with the number and no other words.

Reference set (3 entries):
> print(dat)
                                   compound  readout.number
1  CC1(C(=O)NC2CC=C(C(=O)O)C2)CN(c2cc(F)cc(F)c2)C(=O)O1 (stereo not shown)              90
2  COC(=O)C1CC(NC(=O)C2(C)CN(c3cc(F)cc(F)c3)C(=O)O2)CO1 (stereo not shown)               0
3  CNC(=O)C1CC(NC(=O)C2(C)CN(c3cc(F)cc(F)c3)C(=O)O2)CO1 (stereo not shown)               0

Quick one: Corn plant response rating (0-100) for CNC(=O)C1CCC(NC(=O)C2(C)CN(c3cc(F)cc(F)c3)C(=O)O2)C1 (stereo not shown) ? 0
